Where do the numbers come from? From patent US9034874B2.

Molecular target: human H3 receptors (Homo sapiens (Human), UniProt Q9Y5N1)
Sequence (Q9Y5N1 whole entry): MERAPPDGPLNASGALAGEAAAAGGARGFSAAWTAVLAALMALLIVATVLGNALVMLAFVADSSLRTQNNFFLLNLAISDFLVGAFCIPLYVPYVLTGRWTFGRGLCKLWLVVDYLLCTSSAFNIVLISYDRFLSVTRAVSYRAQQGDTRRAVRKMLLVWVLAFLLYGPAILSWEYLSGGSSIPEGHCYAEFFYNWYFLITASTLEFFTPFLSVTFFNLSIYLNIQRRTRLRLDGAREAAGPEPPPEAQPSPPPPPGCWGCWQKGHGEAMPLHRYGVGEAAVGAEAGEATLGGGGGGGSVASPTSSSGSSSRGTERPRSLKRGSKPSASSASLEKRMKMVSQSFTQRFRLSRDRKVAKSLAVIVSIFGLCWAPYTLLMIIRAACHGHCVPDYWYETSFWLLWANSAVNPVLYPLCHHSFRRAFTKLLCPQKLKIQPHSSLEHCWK
Assay: Potency assessment: blockade of (R)-alpha-methylhistamine-mediated cAMP production (LANCE Ultra cAMP kit)
Format: cell-based
Conditions: CHO cells expressing human H3 receptors
Could you please report measured Ki for the items listed next?
Give bare numbers, in nM.

Take a look at these entries with their results.
molecularString: O=C(OC1CCN(c2ccc(=O)[nH]n2)CC1)N1CCN(C2CCC2)CC1
Ki (nM): 1.3
//
molecularString: CC(C)N1CCN(C(=O)OC2CCN(c3ccc(=O)[nH]c3)CC2)CC1
Ki (nM): 1.6

Provide the reported Ki of each entry below, same order.
1. Cn1nc(N2CCC(OC(=O)N3CCN(C4CCC4)CC3)CC2)ccc1=O
2. CC(C)N1CCN(C(=O)OC2CCN(c3ccc(=O)n(C)n3)CC2)CC1
3. CC(C)N1CCN(C(=O)OC2CCN(c3cc[nH]c(=O)c3)CC2)CC1
4. CC(C)N1CCN(C(=O)OC2CCN(c3ccc(=O)[nH]n3)CC2)CC1
5. CCn1nc(N2CCC(OC(=O)N3CCN(C(C)C)CC3)CC2)ccc1=O

Result:
1. 1.1
2. 2.4
3. 0.9
4. 1.2
5. 2.9

Each compound below has a recorded value; state its Ki.
1. CC(C)N1CCN(C(=O)OC2CCN(c3ccn(C)c(=O)c3)CC2)CC1
2. O=C(OC1CCN(c2cc[nH]c(=O)c2)CC1)N1CCN(C2CCC2)CC1
3. O=C(OC1CCN(c2ccc(=O)[nH]n2)CC1)N1CCN(C2CC2)CC1

Result:
3.1
0.5
2.3

---

Molecular target: human H3 receptors (Homo sapiens (Human), UniProt Q9Y5N1)
Experiment: Affinity assessment: displacement of [3H]-N-α-Methylhistamine binding to membranes
Conditions: membranes containing human H3 receptors, radioligand [3H]-N-α-Methylhistamine
propertyLabel: pKi
Answers are plain numbers, as −log10 of the molar value.

molecularString: O=C(OC1CCN(c2cc[nH]c(=O)c2)CC1)N1CCN(C2CCC2)CC1
targetSystem: human H3 receptors (Homo sapiens (Human), UniProt Q9Y5N1)
observedMeasurement: 7.60
//
molecularString: CC(C)N1CCN(C(=O)OC2CCN(c3cc[nH]c(=O)c3)CC2)CC1
targetSystem: human H3 receptors (Homo sapiens (Human), UniProt Q9Y5N1)
observedMeasurement: 7.92
//
molecularString: CCn1nc(N2CCC(OC(=O)N3CCN(C(C)C)CC3)CC2)ccc1=O
targetSystem: human H3 receptors (Homo sapiens (Human), UniProt Q9Y5N1)
observedMeasurement: 7.36
//
molecularString: O=C(OC1CCN(c2ccc(=O)[nH]n2)CC1)N1CCN(C2CC2)CC1
targetSystem: human H3 receptors (Homo sapiens (Human), UniProt Q9Y5N1)
observedMeasurement: 7.60
//
molecularString: Cn1nc(N2CCC(OC(=O)N3CCN(C4CCC4)CC3)CC2)ccc1=O
targetSystem: human H3 receptors (Homo sapiens (Human), UniProt Q9Y5N1)
observedMeasurement: 7.60

For each entry beneath this line, provide reported pKi.
1. CC(C)N1CCN(C(=O)OC2CCN(c3ccc(=O)[nH]c3)CC2)CC1
2. O=C(OC1CCN(c2ccc(=O)[nH]n2)CC1)N1CCN(C2CCC2)CC1

Result:
[8.92, 7.59]

---

Biological target: human H3 receptors (Homo sapiens (Human), UniProt Q9Y5N1)
Assay: Affinity assessment: displacement of [3H]-N-α-Methylhistamine binding to membranes
Conditions: membranes containing human H3 receptors, radioligand [3H]-N-α-Methylhistamine
propertyLabel: Ki
A bare number is not enough; add the unit after it.

Solved entries (count: 2):
molecularString: CC(C)N1CCN(C(=O)OC2CCN(c3ccc(=O)n(C)n3)CC2)CC1
Ki: 31 nM
//
molecularString: CC(C)N1CCN(C(=O)OC2CCN(c3ccc(=O)[nH]n3)CC2)CC1
Ki: 10 nM

The compound listed as CC(C)N1CCN(C(=O)OC2CCN(c3ccn(C)c(=O)c3)CC2)CC1 shows Ki equal to 20 nM
